- TEST_SYSTEM: T1, human MSLN-FL-his protein (human, UniProt Q13421 296-580)
- T1 construct: Self-made in HEK293E cells; also called human MSLN full-length protein; hMSLN-FL-his; not shown: His tag
- T1 sequence (Q13421 other isoform, or with tags, fused parts or gaps): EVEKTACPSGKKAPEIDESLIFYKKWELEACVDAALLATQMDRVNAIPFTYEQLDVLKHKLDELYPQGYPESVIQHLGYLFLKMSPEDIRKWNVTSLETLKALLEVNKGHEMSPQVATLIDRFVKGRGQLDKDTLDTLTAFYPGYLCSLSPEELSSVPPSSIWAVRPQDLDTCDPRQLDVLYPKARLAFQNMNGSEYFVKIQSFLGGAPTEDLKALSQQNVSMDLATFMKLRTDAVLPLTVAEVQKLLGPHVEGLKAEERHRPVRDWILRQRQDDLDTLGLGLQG
- ASSAY_INFO: ELISA on coated antigen, antibody 100 nM
Collected OD450 values appear next to each entry.

- BINDER: "S009-F3.38.10 (antibody, human IgG1, kappa, V domains shown, Human-murine chimeric antibody: murine VH/VL on human IgG1 heavy and kappa light constant regions) VH: EVQLQQSGPVLVKPGASVKMSCEASGYIFTDYYMNWVKKSHGKSLEWIGVINPKNGVISHNQKFKGKATLTVDKSSNTAYMELSSLTSEDSAVYYCANYGSRFYAMDYWGQGTSVTVSS VL: DVVMTQTPLSLPVSLGDQASISCRSSQSLIHSDGNTYLQWYLQKSGQSPKLLIYKVSNRFSGVPDRFSGSGSGTDFTLKISRVETEDLGVYFCSQTTHVPFTFGSGTKLEIKR"
  OD450 [OD450]: 0.1
- BINDER: "S009-F3.45.21 (antibody, human IgG1, kappa, V domains shown, Human-murine chimeric antibody: murine VH/VL on human IgG1 heavy and kappa light constant regions) VH: DVQLQESGPGLVKPSQSLSLTCSVTGDSITSGYYWNWIRQFPGNKLEWMGFIRFDGTNNYNPSLKNRISITRDTSKNQFFLKLNSVTTEDTATYYCAREGSYAPAWFAYWGQGTLVTVSA VL: QIVLTQSPAIMSASPGEKVTMTCSASSSLSYMYWYQQKPGSSPRLLIYDTSNLASGVPVRFSGSGSGTSYSLTISRMEAEDAATYYCQQWSSYPPTFGGGTKLEIKR"
  OD450 [OD450]: 2.23
- BINDER: "S009-F3.7.3 (antibody, human IgG1, kappa, V domains shown, Human-murine chimeric antibody: murine VH/VL on human IgG1 heavy and kappa light constant regions) VH: EVNFEESGGGLVQPGGSMKLSCVASGFTFSNYWMNWVRQSPEKGLEWVAQIRLKSDNYATHYAESVKGRFTISRDDFKSSVYLQMNNLRAEDTGIYYCTVGTGGYWGQGTTLTVSS VL: DIVLTQSPASLAMSLGKRATISCRASESVSIVGTNVIHWFQQKPGQPPKLLIYHASNLETGVPARFSGSGSGTDFTLTIDPVEEDDVAIYHCLQSRKIPWTFGGGTKLEIKR"
  OD450 [OD450]: 0.13
